Provide the reported kon of each item.
# measurement.target: human full-length VWF (human, UniProt P04275 764-2813)
# measurement.description: SPR, Biacore T200, antibody captured on Protein A, full-length VWF as analyte, single-cycle kinetics
Write the value in M⁻¹ s⁻¹ as a bare number.

Q: Consider the binder 4-H3_H7_L1 (antibody, human IgG1, kappa, V domains shown, humanised, human IgG1 kappa) VH: QVQLVESGGGVVQPGRSLRLSCAASGIDLTSNAMNWVRQAPGKGLEWIGGIYGHDTSYYAAWAKGRFTISRDNSKNTVYLQMNSLRAEDTATYFCARGFIYFDIWGQGTLVTVSS VL: DYQMTQSPSSLSASVGDRVTITCLASEDIASGISWYQQKPGKAPKLLIYGASNLESGVPSRFSGSGSGTDYTLTISSLQPEDFATYYCLGGYSFSSNGLTFGGGTKVEIKT and give its measured kon.
Ans: 65400

Q: Request: 1-A2_VH-par_L1 (antibody, human IgG1, kappa, V domains shown, also called 1-A2_L1 (hIgG1K)) VH: SQSVEESGGRLVPPGTPLTLTCTVSGIDLTSNAMNWVRQAPGKGLEWIGGIYGHDTSYYAAWAKGRFTISRTSTTVDLKMTRPTTDDTATYFCARGFIYFDIWGTGTLVTISS VL: DIQMTQSPSSLSASVGDRVTITCLASEDIYSGISWYQQKPGKAPKLLIYGASNLESGVPSRFSGSGSGTDYTLTISSLQPEDFATYYCLGGHSHSTTDLTFGGGTKVEIKT
Ans: 25600

Q: Request: 4-H3_H8_L1 (antibody, human IgG1, kappa, V domains shown, humanised, human IgG1 kappa) VH: QQLVESGGGVVQPGRSLRLSCAASGIDLTSNAMNWVRQAPGKGLEWIGGIYGHDTSYYAAWAKGRFTISRDSNTVYLQMNSLRAEDTATYFCARGFIYFDIWGQGTLVTVSS VL: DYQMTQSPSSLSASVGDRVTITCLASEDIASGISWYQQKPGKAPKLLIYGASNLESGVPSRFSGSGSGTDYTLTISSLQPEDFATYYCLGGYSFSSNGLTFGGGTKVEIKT
Ans: 52800

Q: Request: 4-H3_H8_L0 (antibody, human IgG1, kappa, V domains shown, humanised, human IgG1 kappa) VH: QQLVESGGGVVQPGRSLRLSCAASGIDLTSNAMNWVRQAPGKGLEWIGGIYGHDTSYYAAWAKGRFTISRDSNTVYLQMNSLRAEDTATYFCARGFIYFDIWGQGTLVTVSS VL: DIQMTQSPSSLSASVGDRVTITCLASEDIASGISWYQQKPGKAPKLLIYGASNLESGVPSRFSGSGSGTDFTLTISSLQPEDFATYYCLGGYSFSSNGLTFGGGTKVEIKT
Ans: 45200

Q: Request: 1-A2_H2_L1 (antibody, human IgG1, kappa, V domains shown, humanised, human IgG1 kappa) VH: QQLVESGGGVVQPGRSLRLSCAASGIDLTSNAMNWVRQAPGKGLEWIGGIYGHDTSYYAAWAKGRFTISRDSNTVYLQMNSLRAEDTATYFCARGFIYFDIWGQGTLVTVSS VL: DIQMTQSPSSLSASVGDRVTITCLASEDIYSGISWYQQKPGKAPKLLIYGASNLESGVPSRFSGSGSGTDYTLTISSLQPEDFATYYCLGGHSHSTTDLTFGGGTKVEIKT
Ans: 19000
